- PROTOCOL_DESCRIPTION: soluble fraction after stress (log2 fold change); higher = more stays soluble; pooled small domains, quantitative proteomics;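 note: 20 min heating vs room temperature control held 20 min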
- CONDITION_SUMMARY: stress: 75 degC
Could you label it Met if measured soluble fraction (log2) is 0.1 or higher, and Not met otherwise?

SEQUENCE_CHAIN: HMDKEPTHLHTFRLIKEGKSSEEIAEIRNITLGTVNTHLAKLIAVGELTIEQVISKHRLDYVMEAIKNSK
ANSWER_LABEL: Met
--
SEQUENCE_CHAIN: HMRLLGEPLAGRLKKDVPVVTGRSTESKAIAQFFELRWSHLPDPEARTISVASGRIDFMDVGATRFSLR
ANSWER_LABEL: Not met
--
SEQUENCE_CHAIN: HMANYTVNAYNNGGTGGSVNMRSGPSTNDGIVVRVPHGATVTGTKSGTWSYMTYNTYTGYMMSVYLDEQS
ANSWER_LABEL: Not met
--
SEQUENCE_CHAIN: HMPYHSEAWHKVMKSHWLTLSREEAYMHEGRTGASTINIVFQRELGREATQEEIESIYQEKSVLFNSYP
ANSWER_LABEL: Not met
--
SEQUENCE_CHAIN: HMDEQKNREIALIENIQREDLNPYEKALGIRNLMDKYGLTQEEVSKRIGKSRSAVSNTVRILNLAPDVL
ANSWER_LABEL: Met

###

- PROTOCOL_DESCRIPTION: soluble fraction after stress (log2 fold change); higher = more stays soluble; pooled small domains, quantitative proteomics
- CONDITION_SUMMARY: stress: 75 degC

SEQUENCE_CHAIN: HMDTFSVAIGTKTPDGSSVGEVKTISRDELLLLEDEVAEDPTKEIIFTGGTKDSAQAALDGWIDYNTNLAS
soluble fraction (log2): 0.0395
--
SEQUENCE_CHAIN: HMVVVVELTENEKAVQDVLTKNEGSLEISDLKTKLELSGKQWDKALKGLAKHGITQVAKVDGVVTVSL
soluble fraction (log2): -0.381
--
SEQUENCE_CHAIN: HMRDYKTHLQEVLQSKGEVNIWYKLIDEKGPDHNKKFVMQVGIDSKILGFGEGKSKKEAEQVAARKALDNI
soluble fraction (log2): -0.384
--
SEQUENCE_CHAIN: HMQERNYIVRRGDTLWDLAKTYYGSGTKYTVIYDANRDNIEAEAKRRGKQSSNGGYWIYPGTELTI
soluble fraction (log2): -0.348
--
SEQUENCE_CHAIN: HMRIEDTMDYINKIKEKLKNNGGVITSKEFTRSNIPTIYLTRMVETGELIRIDRGIYINSSG
soluble fraction (log2): -0.781
--
SEQUENCE_CHAIN: HMTYPGSIALVNPKHEAFVQHYVATSGSRGQAAKLAGVTTTTARNLLQDVEATARIRYLNAQQFQ
soluble fraction (log2): -0.12
--
SEQUENCE_CHAIN: HMQEPNYQPLMQNIKSQDLEEVTRLLSLNDVKFKIDHRTGLLLVESSRVYEAKMKLAATGITD
soluble fraction (log2): -1.07
--
SEQUENCE_CHAIN: HMSVNAPMPGKIVNVLVSEGQKVNSGDVLLILEAMKMQNEIAATQAGTVKAINVAAGQSVKVGDALVN
soluble fraction (log2): -0.0534
--
SEQUENCE_CHAIN: HMNKLSISALAETVSTKRKEKSMTQQDLSDATGINRALISRLEQKDFIPSIPQLEKLEEILGFELEEVF
soluble fraction (log2): -0.324
--
SEQUENCE_CHAIN: HMFAQDKKFITYKVKEGETVQSISKALSITPYDLLKLNPDIKDNVSQDDLLIIPNKQYDPLGDI
soluble fraction (log2): 0.378
--
SEQUENCE_CHAIN: HMEELIEMNGVVMEILPDSRYRVTLDNGHKLIAYTGGKMKKNHIRILAGDKVTLELSPYDINNGRITFRHI
soluble fraction (log2): -1.66
--
SEQUENCE_CHAIN: HMGLSNYEFNSISQTVKEKLEQGPLTLKALVDETAHLFAEDKVVSVVQWLIDQRDLAYDDHGLLQWKG
soluble fraction (log2): -0.792
--
SEQUENCE_CHAIN: HMTDRKRDAIVQAAIGEFREHGFNGTSMDRVAAAADVSKRTVYNHFPSKEELFEAILLLMWE
soluble fraction (log2): -1.93
--
SEQUENCE_CHAIN: HMSAQDLIVKTDATQVEARVLEISPEQIRYKRFSNPDGPTYVLPVDAVDYIRYANGETDSFR
soluble fraction (log2): 0.076
--
SEQUENCE_CHAIN: HMNTVAGAISDLSFKVRGSEDIEKLNRLKALSIQAKLDVQGQEEAERLISELEAKYGSLGMTVDKVSGKIA
soluble fraction (log2): 0.0323
--
SEQUENCE_CHAIN: HMLEASVYTAEKSGDRLDAFLAEQAGITRSYAQKLIEGGQVTLGGVVPKKNYKLSAGEQVELILPEN
soluble fraction (log2): 0.0466
--
SEQUENCE_CHAIN: HMVNVLKNSTVIDLVKNNLSDALIISLIRRAKVDFSLMTDDVIELSGKGVSPAVIMEMRQAMIRQASEIQN
soluble fraction (log2): -0.318
--
SEQUENCE_CHAIN: HMAVQPMDQVKAWLAEDNPADIKLLVPVLQKLDLLDYEQVRGEVADRAGVRKSLLDEAVKGN
soluble fraction (log2): 0.0888
--
SEQUENCE_CHAIN: HMGYVQLTAREKEVLQGLVDGASYKMIAAKLDIRFGTVHTHVKNIYEKLHVNSASEAVVKAIRQRL
soluble fraction (log2): -2.26
--
SEQUENCE_CHAIN: HMIDSVFASYRQVALDDELWDKVRNGAVLPKVELFEVMDGPVLFTYQSKIVAMYEPHPTKAGYIKPRKMFL
soluble fraction (log2): -2.09
--
SEQUENCE_CHAIN: HMTKTEFLNLLEQRLFVLNDNERADLLSEYKQHIEMKIQSGLSEEEAIADFGDPEELIKELLEAY
soluble fraction (log2): -0.956
--
SEQUENCE_CHAIN: HMSQDEVVADMKADLGPDADNIIRSNIQWADGLVRKGILTESEREELDVMGGTPEAQRILVKLRTMQG
soluble fraction (log2): 0.178
--
SEQUENCE_CHAIN: HMSERVVEIDPSQLRPGLFIRLPSGWMNHPFLFNQFRINSAEQVEIIQKLGLKTVQYLPERSSTQALPRA
soluble fraction (log2): -1.95
--
SEQUENCE_CHAIN: HMHVYQSLVTDRVVPGGGYRTTEAILSTEAWRNTLLEQAKRELIGVRNKYASLTELAKVWTAIDTVT
soluble fraction (log2): -1.65
--
SEQUENCE_CHAIN: HMYAGTWISESGQWKYRNDDGSFAKGWFQDLDSRWYYFDANGHMLSDTLTPDGYRLGEDGAWVND
soluble fraction (log2): 0.0742
--
SEQUENCE_CHAIN: HMDAAANTLRILKALSESPMSADRLAELLMEEGSGRNPRTIRRYIRALREAGFGVEHREGRYVL
soluble fraction (log2): -0.387
--
SEQUENCE_CHAIN: HMADKNIIGVLSAADNLGKVRITTANGEKYIITVPDGLSDIVKTYWEEEVSVKYVIEKRRKILVDIDG
soluble fraction (log2): -2.04
--
SEQUENCE_CHAIN: HMQPADYSDLYAAAKSAGEADMRAAFALTDKQERTAAVNAARETIKAALSEEQLADANLGSALKKLEAGV
soluble fraction (log2): -0.122
--
SEQUENCE_CHAIN: HMDTFYKNLSKKIKTIREKLSFSQEALAKELGISRVAISQIENGDRKISAEEIAKLSRVFNVPTDILLN
soluble fraction (log2): -0.281
--
SEQUENCE_CHAIN: HMLHMKAALGELMSIPGMRSELAGTLFDRGYTSLAQLRAATLDDLERVNGLERADARRIHDFLRKS
soluble fraction (log2): -0.251
--
SEQUENCE_CHAIN: HMVGEQISYIPLKFATASEVVKSLTSMFQQQKGIAPIRIVAEERTNAILLLASEADTARVKNLIAMMDKGV
soluble fraction (log2): -2.15
--
SEQUENCE_CHAIN: HMESSKLQASIINYLERRPTQKFTAEELFKGLSLEKASVFNELVKELTSLERSHKVEITADDKFKIARPQ
soluble fraction (log2): -0.331

Hello, the source for this data is the domain aggregation screens of Martell et al. (2025), in case you need it.
